// provenance: PubChem BioAssay (EPA / NIEHS)

biological target: Retinoic acid receptor RXR-alpha (Homo sapiens) (UniProt P19793); test: ATG_RXRa_TRANS: Attagene TRANS-FACTORIAL HepG2 Assay for human Retinoid X Receptor alpha (RXRa) (AID 2283012)
Sequence (P19793 whole entry, looked up): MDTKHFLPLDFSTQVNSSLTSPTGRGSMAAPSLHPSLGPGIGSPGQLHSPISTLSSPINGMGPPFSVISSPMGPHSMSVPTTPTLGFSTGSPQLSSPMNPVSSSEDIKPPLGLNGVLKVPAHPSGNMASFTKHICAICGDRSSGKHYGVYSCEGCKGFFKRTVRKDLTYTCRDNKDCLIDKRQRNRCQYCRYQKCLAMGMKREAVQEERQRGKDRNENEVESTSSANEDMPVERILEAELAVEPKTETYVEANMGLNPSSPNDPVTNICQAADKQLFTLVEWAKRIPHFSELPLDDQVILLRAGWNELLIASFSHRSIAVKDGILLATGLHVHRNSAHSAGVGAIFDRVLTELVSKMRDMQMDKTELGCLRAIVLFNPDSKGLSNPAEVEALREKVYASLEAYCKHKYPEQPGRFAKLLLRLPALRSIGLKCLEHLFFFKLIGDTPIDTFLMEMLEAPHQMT
Results filed as inconclusive are left out. Activity calls are given as the source filed them. How the source made its calls: active means hit-call score of the fitted dose curve at least 0.9, where 1 is the maximum; inconclusive means response in the unintended direction; inactive means score below 0.9.
Labels: active, inactive

- COMPOUND: "CC(=[OH+])/C=C(/C)[O-].CC(=[OH+])/C=C(/C)[O-].CC(=[OH+])/C=C(/C)[O-].[Al]"
  CLASS ASSIGNMENT: "inactive"
- COMPOUND: "CCC(=O)C(CC(C)N(C)C)(c1ccccc1)c1ccccc1 (configuration not stated)"
  CLASS ASSIGNMENT: "inactive"
- COMPOUND: "OCc1ccco1"
  CLASS ASSIGNMENT: "inactive"
- COMPOUND: "O=S(=O)(c1ccc(Cl)cc1)c1ccc(Cl)cc1"
  CLASS ASSIGNMENT: "inactive"
- COMPOUND: "C[C@]12CCC(=O)C[C@@H]1CC[C@@H]1[C@@H]2CC[C@]2(C)[C@@H](O)CC[C@@H]12"
  CLASS ASSIGNMENT: "inactive"
- COMPOUND: "N#CCCO"
  CLASS ASSIGNMENT: "inactive"
- COMPOUND: "C[C@]12CC[C@H](O)CC1=CC[C@@H]1[C@@H]2CC[C@]2(C)C(=O)CC[C@@H]12"
  CLASS ASSIGNMENT: "inactive"
- COMPOUND: "c1ccc(N=NNc2ccccc2)cc1"
  CLASS ASSIGNMENT: "inactive"
- COMPOUND: "O=C(O)C(F)(F)C(F)(F)C(F)(F)C(F)(F)C(F)(F)C(F)(F)F"
  CLASS ASSIGNMENT: "inactive"
- COMPOUND: "NC(=O)O"
  CLASS ASSIGNMENT: "inactive"
- COMPOUND: "CC(=O)OC(c1ccccc1)C(Cl)(Cl)Cl (configuration not stated)"
  CLASS ASSIGNMENT: "inactive"
- COMPOUND: "Oc1ccc(-c2ccccc2)cc1"
  CLASS ASSIGNMENT: "inactive"
- COMPOUND: "CC(=O)c1cc(C(C)(C)C)cc2c1CCC2(C)C"
  CLASS ASSIGNMENT: "active"
- COMPOUND: "NC(=S)Nc1ccccc1"
  CLASS ASSIGNMENT: "inactive"
- COMPOUND: "COc1cc(-c2ccc(N)c(OC)c2)ccc1N"
  CLASS ASSIGNMENT: "inactive"
- COMPOUND: "Oc1cccc2cccnc12"
  CLASS ASSIGNMENT: "inactive"
- COMPOUND: "C1CCC(NC2CCCCC2)CC1"
  CLASS ASSIGNMENT: "inactive"
- COMPOUND: "COS(=O)(=O)c1ccc(C)cc1"
  CLASS ASSIGNMENT: "inactive"
- COMPOUND: "CC1CN1P(=O)(N1CC1C)N1CC1C (configuration not stated)"
  CLASS ASSIGNMENT: "inactive"
- COMPOUND: "c1cc[c]([Hg][c]2ccccc2)cc1"
  CLASS ASSIGNMENT: "inactive"
- COMPOUND: "CN(C)N=O"
  CLASS ASSIGNMENT: "inactive"
- COMPOUND: "O=C(Nc1ccc2[nH]ccc2c1)c1cc2cc(F)ccc2n1Cc1cccc(F)c1"
  CLASS ASSIGNMENT: "inactive"
- COMPOUND: "CCOC(=O)/C=C(C)/C=C/C[C@@H](C)CCCC(C)C"
  CLASS ASSIGNMENT: "inactive"
- COMPOUND: "CCN1CCC2(CC1)COc1cc3c(cc12)N(C(=O)c1ccc(-c2ccc(-c4nnc(C)o4)cc2C)cc1)CC3"
  CLASS ASSIGNMENT: "inactive"
- COMPOUND: "O=C1CCCN1"
  CLASS ASSIGNMENT: "inactive"
- COMPOUND: "C[C@@H]1C[C@@H]([C@H](O)CC2CC(=O)NC(=O)C2)C(=O)[C@@H](C)C1"
  CLASS ASSIGNMENT: "inactive"
- COMPOUND: "CC1(C)Cc2cccc(O)c2O1"
  CLASS ASSIGNMENT: "inactive"
- COMPOUND: "O=C(O)C(F)(F)C(F)(F)C(F)(F)C(F)(F)C(F)(F)C(F)(F)C(F)(F)C(F)(F)C(F)(F)C(F)(F)F"
  CLASS ASSIGNMENT: "inactive"
- COMPOUND: "Cn1sc(Cl)cc1=O"
  CLASS ASSIGNMENT: "inactive"
- COMPOUND: "ClCC(Cl)CCl"
  CLASS ASSIGNMENT: "inactive"
- COMPOUND: "O=C(c1ccccc1)C(Cl)Cl"
  CLASS ASSIGNMENT: "inactive"
- COMPOUND: "O=P(O)(O)CN(CP(=O)(O)O)CP(=O)(O)O"
  CLASS ASSIGNMENT: "inactive"
- COMPOUND: "CC12CC1(C)C(=O)N(c1cc(Cl)cc(Cl)c1)C2=O (configuration not stated)"
  CLASS ASSIGNMENT: "inactive"
- COMPOUND: "COP(=S)(OC)Oc1ccc(Sc2ccc(OP(=S)(OC)OC)cc2)cc1"
  CLASS ASSIGNMENT: "inactive"
- COMPOUND: "Cc1ccc(N)cc1Cl"
  CLASS ASSIGNMENT: "inactive"
- COMPOUND: "COc1ccc(C=O)cc1OC"
  CLASS ASSIGNMENT: "inactive"
- COMPOUND: "O=C(NCO)NCO"
  CLASS ASSIGNMENT: "inactive"
- COMPOUND: "CCOC(=O)CP(=O)(OCC)OCC"
  CLASS ASSIGNMENT: "inactive"
- COMPOUND: "Nc1cccc2ccccc12"
  CLASS ASSIGNMENT: "inactive"
- COMPOUND: "Cc1ccc2ccccc2c1C"
  CLASS ASSIGNMENT: "inactive"
- COMPOUND: "Clc1ccc(COC(Cn2ccnc2)c2ccc(Cl)cc2Cl)cc1 (configuration not stated)"
  CLASS ASSIGNMENT: "inactive"
- COMPOUND: "ClCc1ccccn1"
  CLASS ASSIGNMENT: "inactive"
- COMPOUND: "CNC(=O)O/N=C/C(C)(C)S(C)=O (configuration not stated)"
  CLASS ASSIGNMENT: "inactive"
- COMPOUND: "CC(C)(c1ccc(OCC2CO2)cc1)c1ccc(OCC2CO2)cc1 (configuration not stated)"
  CLASS ASSIGNMENT: "inactive"
- COMPOUND: "O=C(O)Cc1ccccc1"
  CLASS ASSIGNMENT: "inactive"
- COMPOUND: "CCCCCCCCc1ccc(O)cc1"
  CLASS ASSIGNMENT: "inactive"
- COMPOUND: "CC(Br)C(=O)O (configuration not stated)"
  CLASS ASSIGNMENT: "inactive"
- COMPOUND: "CCCCC(CC)CO[N+](=O)[O-] (configuration not stated)"
  CLASS ASSIGNMENT: "inactive"
- COMPOUND: "N#CN=C(N)N"
  CLASS ASSIGNMENT: "inactive"
- COMPOUND: "Nc1ccc(-c2ccc(N)c(Cl)c2)cc1Cl"
  CLASS ASSIGNMENT: "inactive"
- COMPOUND: "CC(=O)C=C(C)C"
  CLASS ASSIGNMENT: "inactive"
- COMPOUND: "CC(C)(C)CC(C)(C)c1ccc(O)cc1"
  CLASS ASSIGNMENT: "inactive"
- COMPOUND: "COP(=S)(OC)Oc1cc(Cl)c(Cl)cc1Cl"
  CLASS ASSIGNMENT: "inactive"
- COMPOUND: "O=CC=O"
  CLASS ASSIGNMENT: "inactive"
- COMPOUND: "CCOP(=S)(OCC)SCSP(=S)(OCC)OCC"
  CLASS ASSIGNMENT: "inactive"
- COMPOUND: "CCC1(c2ccc(N)cc2)CCC(=O)NC1=O (configuration not stated)"
  CLASS ASSIGNMENT: "inactive"
- COMPOUND: "CC(C)C1CCC(Cc2ccc(Cl)cc2)C1(O)Cn1cncn1 (configuration not stated)"
  CLASS ASSIGNMENT: "inactive"
